Measured T/C by item
System: P388 leukemia ip, CD2F1 mice, survival T/C
Experiment: NCI In Vivo Anticancer Drug Screen. Data for tumor model P388 Leukemia (intraperitoneal) in CD2F1 (CDF1) mice
Conditions: endpoint: median survival time; dose: 200.0 mg/kg/injection; schedule: Q01DX009 (ip); vehicle: saline with Tween-80; higher = longer survival
Inconclusive results and toxic doses are left out.

Completed entries (count: 10):
INSERT INTO assay_data (molecule, reported_property, data_value) VALUES
  ('O=C(CN1CCCCC1)Nc1ccc(Br)cc1', 'T/C', '111 % of control'),
  ('CC(=O)c1ccccc1N=Nc1ccc(N(CCCl)CCCl)cc1C', 'T/C', '123 % of control'),
  ('Cc1cc2c(cc1C)-c1c(oc3cc(C)c(C)cc13)-c1ccccc1C(=O)O2', 'T/C', '97 % of control'),
  ('Oc1cccnc1Cl', 'T/C', '119 % of control'),
  ('CNC(C)=O', 'T/C', '95 % of control'),
  ('CCCC(C)C(=O)N(C(C)=O)c1ccc(Cl)c(Cl)c1 (configuration not stated)', 'T/C', '110 % of control'),
  ('O=C(Nc1ccccc1)Nc1nccs1', 'T/C', '93 % of control'),
  ('CC(C)(C)CC(C)(C)c1ccc(OCc2ccc(Cl)c(Cl)c2)cc1', 'T/C', '91 % of control'),
  ('CCOC1N(c2ccc(Cl)cc2)CN(CCCN(C)C)CC1(C)C (configuration not stated)', 'T/C', '117 % of control'),
  ('Cc1cc(N)c([N+](=O)[O-])cc1C', 'T/C', '96 % of control');

State the recorded T/C for this entry: CCc1ccc2c(c1)C(O)(c1ccccc1)c1ccccc1C2(O)c1ccccc1 (configuration not stated)
93 % of control

State the recorded T/C for this entry: "O=C(Nc1ccccc1)Oc1cccc(/C=N/S(=O)(=O)c2cccc([N+](=O)[O-])c2)c1"
98 % of control

====

Measured T/C by item
System: P388 leukemia ip, CD2F1 mice, survival T/C
Assay: NCI In Vivo Anticancer Drug Screen. Data for tumor model P388 Leukemia (intraperitoneal) in CD2F1 (CDF1) mice
Settings: endpoint: median survival time; dose: 100.0 mg/kg/injection; schedule: Q04DX003 (ip); vehicle: Klucel (hydroxypropylcellulose) (HPC); higher = longer survival
Toxic doses and inconclusive results are not listed.

INSERT INTO measurements (molecule, data_value) VALUES
  ('CCc1[nH]c2ccc(C)cc2c1C(=O)c1cccnc1', '103 % of control');

Query for P388 leukemia ip, CD2F1 mice, survival T/C: what T/C does the record show for CC1COCCOC(=O)c2cccc(n2)C(=O)OCCOCC(C)O1 (centres undefined) ?
102 % of control

Query for P388 leukemia ip, CD2F1 mice, survival T/C: what T/C does the record show for "O=c1[nH]c2c(c(O)c1-c1ccccc1)CCCN2" ?
102 % of control

Query for P388 leukemia ip, CD2F1 mice, survival T/C: what T/C does the record show for C=CC12COC(=O)CC1CCC(=O)C2 (centres undefined) ?
99 % of control

====

Test system: P388 leukemia ip, CD2F1 mice, survival T/C
Assay: NCI In Vivo Anticancer Drug Screen. Data for tumor model P388 Leukemia (intraperitoneal) in CD2F1 (CDF1) mice
Settings: endpoint: median survival time; dose: 100.0 mg/kg/injection; schedule: Q01DX009 (ip); vehicle: saline with Tween-80
Toxic doses and inconclusive results are not listed. The calls were made as follows: active = survival T/C of 150% or more; inactive = T/C below 125% in these data.
The reply should name one outcome from active, inactive

Take a look at these entries with their results.
INSERT INTO results (compound, target_or_test_system, class_assignment) VALUES
  ('CCOc1ccc(N2C(=O)CC(Sc3ccccc3N)C2=O)cc1 (stereo not given)', 'P388 leukemia ip, CD2F1 mice, survival T/C', 'inactive'),
  ('CCOc1ccc(Br)cc1/C=N/NS(=O)(=O)c1ccc(C)cc1', 'P388 leukemia ip, CD2F1 mice, survival T/C', 'inactive');

Please let me know the test result on file for CCOC(=O)N1C(=O)C2C3CCC(C2C1=O)C1C2C(=O)N(C(=O)OCC)C(=O)C2C31 (stereo not given) .
active

Please let me know the test result on file for "CCN(CC)CCNc1ccc(C)c2sc3c(O)cccc3c(=O)c12" .
inactive

Please let me know the test result on file for "CCCCCCSC(=O)Nc1ccc(C)c(NC(=O)SCCCCCC)c1" .
inactive

Please let me know the test result on file for "NC(=S)N/N=C\C(=N/NC(N)=S)c1cccc([N+](=O)[O-])c1" .
inactive

Please let me know the test result on file for "Cc1cc(N)c([N+](=O)[O-])cc1C" .
inactive

Cited source: PubChem BioAssay AID330
